Known composite z-score of a selection of compounds
System: Wnt5a (protein binding on small-molecule microarray)
protocol summary: Wnt5a binders on small-molecule microarray, primary screen, biophysical, 635/667 nm fluorescence (AID 1142);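 note: fluorescence read at 667 nm with signal to noise per printed feature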
assay setup: 635 nm fluorescence, higher = more signal
Hey, just send me the number, nothing else.

Completed entries (count: 5):
CCc1cccc(NC(=O)O[C@H]2[C@H](OC(=O)Nc3ccccc3-c3ccccc3)[C@H](OC(=O)Nc3ccccc3-c3ccccc3)[C@@H](OC)O[C@@H]2CO)c1 | 0.947
CC(CO)N1C(=O)[C@@H]2[C@H]3C(=O)OCC=C[C@H]3OC23C=CCN(c2ccc4ccccc4c2)C(=O)[C@@H]13 (stereo partly drawn) | -1.02
COc1ccc([Si](C)(C)[C@H]2[C@H](CC(=O)N(CCO)Cc3ccccc3)O[C@@]3(C(=O)N(Cc4ccc(N5C(=O)c6cccc7cccc5c67)cc4)c4ccccc43)[C@@H]2C)cc1 | 0.954
N#Cc1ccc(NN2C(C(O)c3ccc(B(O)O)cc3)C=CC3CN(c4ccccc4)C(=O)C32)cc1 (stereo not drawn) | -0.465
COc1ccc([Si](C)(C)[C@@H]2[C@@H](CC(=O)N(CCO)Cc3ccccc3)O[C@]3(C(=O)N(Cc4cccc(I)c4)c4ccccc43)[C@H]2C)cc1 | 0.546

Please list composite z-score recorded for the compound CCOC(=O)C1=CCC(c2ccncc2)N(S(=O)(=O)c2ccc(C)cc2)C1 (stereo not drawn)
0.637

Note composite z-score for the compound shown: `CCCC=C(CCC)[C@@H](NC(=O)c1ccc(C(=O)OC)cc1)c1ccc(C(=O)OC)cc1`
0.41

Input CCN1C(=O)C2CC(=O)C3C(CN(S(=O)(=O)c4ccc(C)cc4)C3c3ccc(C)cc3)C2C1=O (stereo not drawn) , output reported composite z-score.
0.235

For the compound COC(=O)C1=CC(CCCO)=CC(c2ccc(CN3CCCC3)cc2)N(C)C=C1C(=O)OC (stereo not drawn) , give its measured composite z-score value.
0.408

Output measured composite z-score for this item: `CC[C@@H]1C=C(C(=O)O)[C@H](c2cccc(Cl)c2)N1S(=O)(=O)c1ccc(C)cc1`
-0.23

Tell me measured composite z-score for `Cc1c(NC(=O)/C(C#N)=C/C=C/c2ccc([N+](=O)[O-])cc2)c(=O)n(-c2ccccc2)n1C` please.
0.388

State its composite z-score: CC(C)c1ccc(NN2C(C(O)C3CCCCC3)C=CC3C(=O)N(c4ccccc4)C(=O)C32)cc1 (stereo not drawn)
0.283

Note composite z-score for the compound shown: `COCCOC(=O)N1C(=O)[C@@]2(c3cc(C#CCNC(N)=O)ccc31)[C@H](C(N)=O)[C@H]1C(=O)O[C@H](c3ccccc3)[C@H](c3ccccc3)N1[C@@H]2c1ccc(O)cc1`
0.159

* * *

protocol summary: P. aeruginosa biofilm formation inhibitors, primary screen, PAO1 strain, BacTiter-Glo luminescence, LB-PBS (AID 1144)
assay setup: 12 h, higher = more signal
Listing of recorded z-score by entry.
Lab note: jot the number down without any unit.

Look over these answered cases.
CO[C@H]1O[C@H](CO)[C@@H](OC(=O)Nc2ccccc2)[C@@H]2OC(=O)[C@@H](Cc3ccccc3)C/C=C/C[C@H](Cc3ccccc3)C(=O)O[C@@H]12 | -0.213
C=C(COC)C(=O)CC[C@@H](OC(=O)c1ccccc1-c1ccccc1C(=O)O)c1ccccc1OCCO | -0.693
COc1ccc([Si](C)(C)[C@H]2[C@H](CC(=O)N(CCO)Cc3ccccc3)O[C@@]3(C(=O)N(Cc4ccc(N5C(=O)c6cccc7cccc5c67)cc4)c4ccccc43)[C@@H]2C)cc1 | 0.278
Cc1ccc(S[C@]2(C(=O)NC3CC3)CC(=O)N(C3Cc4ccccc4C3)[C@@H]2c2ccc(CO)cc2I)cc1 | 0.714
CC(C)[Si](C#Cc1ccccc1)(O[C@H](c1ccccc1)c1cn(Cc2ccccc2)nn1)C(C)C | -0.519

Provide measured z-score value, entry: CCCC1(C(=O)OC)C=C2C(=C(C(C)C)C(=O)C2C)CN1 (centres undefined)
0.2

Give z-score for `C=C(CCCC)C(=O)CC[C@H](OC(=O)c1ccccc1-c1ccccc1C(=O)O)c1cccc(OCCO)c1`
-0.77

Identify z-score associated with the compound `CN(C)CCCCNC(=O)[C@H]1C[C@H]2C(=O)N[C@@H](CCCCN(C)C)C(=O)N2[C@H]1c1ccc(O)cc1`
-0.889

Specify reported z-score for the compound shown: CN1C(=O)C2CC=C(C3=CCO[C@@H]3[C@H]3CCCN3S(=O)(=O)c3ccccc3[N+](=O)[O-])CC2C1=O (some centres undefined)
0.0769

State, in one line, measured z-score of `[N-]=[N+]=NCc1ccccc1[C@H]1OC(c2ccc(OCCCO)cc2)=N[C@@]1(CCS(=O)(=O)c1ccccc1)C(=O)NCCN1CCOCC1`
-0.561
